Parameter: IC50. Scope: all listed entries.
System: A549 Human NSCLC Cell Lines
Run description: Relative cell numbers of A549 cells (wild type, shControl, Axl/Mer knockdown) after 48 hours of drug
Type: cell-based
Test conditions: A549 shMer1-G8 (Mer knockdown), 48 hours, relative cell number
Hey, just the number and the unit after it is fine.

- Compound: "N.N.[Cl][Pt][Cl] [Cispl, cisplatin]"
  Assay result: "3 µM"

Next item in the queue.
Readout IC50 for "N.N.O=C([O-])C1(C(=O)[O-])CCC1.[Pt+2]" , test system A549 Human NSCLC Cell Lines, was 93.4 µM

---

System: G12 astrocytoma cells
Run description: MTT assay, chemosensitivity of G12 astrocytoma control and knockdown cells
Type: cell-based
Test conditions: 48 h, G12 shControl, MTT
Parameter: pIC50
FYI, pIC50 means -log10 of a concentration in mol per litre.

Field pIC50 (entry Cn1nnc2c(C(N)=O)ncn2c1=O [Temozolomide, temozolomide] ) reads 4.16
